- tested system: T1, human EphA7 (Homo sapiens, UniProt Q15375)
- T1 construct: a protein of the extracellular region of each human Eph receptor fused with the SEAP protein and the His tag; made in house; host or cells: Expi293F cells (culture supernatant)
- T1 sequence (Q15375 28-555 limits assumed): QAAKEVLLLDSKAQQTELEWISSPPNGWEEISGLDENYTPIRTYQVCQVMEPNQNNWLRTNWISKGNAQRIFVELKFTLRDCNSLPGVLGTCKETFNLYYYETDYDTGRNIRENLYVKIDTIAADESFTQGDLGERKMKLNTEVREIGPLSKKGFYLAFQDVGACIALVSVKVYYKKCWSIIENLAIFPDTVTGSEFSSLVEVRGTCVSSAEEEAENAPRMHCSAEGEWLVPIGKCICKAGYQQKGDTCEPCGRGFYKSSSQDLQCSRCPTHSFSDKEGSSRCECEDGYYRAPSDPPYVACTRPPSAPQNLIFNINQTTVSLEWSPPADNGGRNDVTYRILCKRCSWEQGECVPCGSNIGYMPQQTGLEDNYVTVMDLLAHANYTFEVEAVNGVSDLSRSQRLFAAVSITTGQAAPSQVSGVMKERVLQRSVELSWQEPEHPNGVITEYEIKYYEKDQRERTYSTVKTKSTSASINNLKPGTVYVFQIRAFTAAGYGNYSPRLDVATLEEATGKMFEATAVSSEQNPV
- experiment summary: Selectivity ELISA of humanized antibodies for human Eph receptor
- Format: binding
- test parameters: coated protein 1 nM
reported metric: hEphA7-SEAP-: absorbance at 450 nm, percentage with respect to hEphA4-SEAP-His as 100% (%)
Record the value in %, omitting the unit from your answer.

Consider the reported hEphA7-SEAP-: absorbance at 450 nm, percentage with respect to hEphA4-SEAP-His as 100% for these molecules:
>>> recorded_result("158 (antibody, V domains shown, synthetic humanized antibody heavy chain variable region sequence; synthetic humanized antibody light chain variable region sequence) VH: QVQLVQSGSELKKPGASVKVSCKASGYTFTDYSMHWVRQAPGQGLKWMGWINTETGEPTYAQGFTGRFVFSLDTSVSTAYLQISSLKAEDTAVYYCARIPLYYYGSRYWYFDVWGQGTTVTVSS VL: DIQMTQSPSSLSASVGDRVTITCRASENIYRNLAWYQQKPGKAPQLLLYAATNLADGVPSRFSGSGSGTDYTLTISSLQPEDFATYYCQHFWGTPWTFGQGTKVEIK")
6.3
>>> recorded_result("138 (antibody, V domains shown, synthetic humanized antibody heavy chain variable region sequence; synthetic humanized antibody light chain variable region sequence) VH: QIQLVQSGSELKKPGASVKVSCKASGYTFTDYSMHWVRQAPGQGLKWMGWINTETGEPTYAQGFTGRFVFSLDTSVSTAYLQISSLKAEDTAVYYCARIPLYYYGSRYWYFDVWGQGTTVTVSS VL: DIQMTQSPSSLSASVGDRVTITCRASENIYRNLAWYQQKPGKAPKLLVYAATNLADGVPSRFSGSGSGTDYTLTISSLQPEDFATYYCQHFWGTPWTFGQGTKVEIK")
4.9

Input: I would be grateful if you could share the reported hEphA7-SEAP-: absorbance at 450 nm, percentage with respect to hEphA4-SEAP-His as 100% for 141 (antibody, V domains shown, synthetic humanized antibody heavy chain variable region sequence; synthetic humanized antibody light chain variable region sequence) VH: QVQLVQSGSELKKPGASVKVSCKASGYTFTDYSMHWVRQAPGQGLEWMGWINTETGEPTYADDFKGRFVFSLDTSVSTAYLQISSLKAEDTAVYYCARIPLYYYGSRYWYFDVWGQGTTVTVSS VL: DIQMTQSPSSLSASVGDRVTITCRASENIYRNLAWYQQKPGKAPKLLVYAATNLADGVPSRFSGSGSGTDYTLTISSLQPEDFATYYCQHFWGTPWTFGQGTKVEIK .
Output: 5.3

Input: Fill blank: measured hEphA7-SEAP-: absorbance at 450 nm, percentage with respect to hEphA4-SEAP-His as 100% of the molecule 93 (antibody, V domains shown, constant regions without entry; synthetic humanized antibody light chain variable region sequence; synthetic humanized antibody heavy chain variable region sequence) VL: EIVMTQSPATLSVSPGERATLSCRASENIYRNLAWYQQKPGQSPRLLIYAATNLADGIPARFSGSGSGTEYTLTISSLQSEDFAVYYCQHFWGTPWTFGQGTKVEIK VH: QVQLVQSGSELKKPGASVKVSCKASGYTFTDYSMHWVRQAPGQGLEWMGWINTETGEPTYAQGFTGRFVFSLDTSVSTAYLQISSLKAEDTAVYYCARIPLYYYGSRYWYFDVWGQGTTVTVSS is ____.
Output: 4.9
